Test system: wild-type K-12-Pore
Assay: Checkerboard synergy (FICI), porinated strain
Format: cell-based, Escherichia coli
Details: K-12 Pore; PAβN + antibiotic
Description: Synergy measurement using checkerboard analysis was performed in 96-well microtiter plates using the microdilution broth method, according to CLSI guidelines (Patel J. B., 2015). The cell inocula were prepared using the colony resuspension method. The minimum inhibitory concentrations (MICs) were defined as the lowest concentration that provided no growth, as determined by measurement of the OD600nm using a Synergy H1 microplate reader (BioTek). […]
quantity kind: FICI
Give bare numbers.

A selection of reference data follows.
CO[C@@H]1[C@@H](OC(N)=O)[C@@H](O)[C@H](Oc2ccc3c(O)c(NC(=O)c4ccc(O)c(CC=C(C)C)c4)c(=O)oc3c2C)OC1(C)C = 0.508
CC(=O)O[C@H]1C[C@@]2(C)[C@@H](C[C@@H](O)[C@H]3[C@@]4(C)CC[C@@H](O)[C@@H](C)[C@@H]4CC[C@@]32C)/C1=C(\CCC=C(C)C)C(=O)O = 0.188
CC(=O)NC[C@H]1CN(c2ccc(N3CCOCC3)c(F)c2)C(=O)O1 = 0.250

Attention now shifts to the item below.
IN: Look up FICI for this molecule: Cc1onc(-c2ccccc2)c1C(=O)N[C@@H]1C(=O)N2[C@@H]1SC(C)(C)[C@@H]2C(=O)O
OUT: 0.750
